Origin of the recorded values: ChEMBL document CHEMBL1122462

Biological target: Sterol O-acyltransferase 1 (Rattus norvegicus)
Assay: In vitro inhibitory activity against acyl coenzyme A:cholesterol acyltransferase
Parameters: concentration or dose not given beside the values
Conditions: concentration not given here
Measurement type: inhibition (%)

CCOC(=O)c1ccc(NC(=O)CCC(=O)OC)cc1	2

P. CCOC(=O)c1ccc(NCCCCCCCCCCCCNc2ccc(C(=O)OCC)cc2)cc1
Q. CCCCCCCCCCC(N)CCCCCNc1ccc(C(=O)[O-])cc1.[Na+] (stereo unspecified)
Prompt line: Lab note: check whether P or Q shows the higher recorded inhibition. Give the chosen item's label as your response.
Response line: Q
(Q: 7%, P: 2%)

---

Target: Sterol O-acyltransferase 1 (Rattus norvegicus)
Experiment: In vitro inhibitory activity against acyl coenzyme A:cholesterol acyltransferase
Design: concentration or dose not given beside the values
Settings: concentration not given here
Measurement type: inhibition (%)

a. O=C(O)CN(CC(=O)O)c1ccc(C(=O)O)cc1
b. CCOC(=O)c1ccc(NCCC2CCCC2)cc1
Prompt line: Lab note: check whether a or b shows the higher recorded inhibition. Give the chosen item's label as your response.
Response line: b
(b: 60%, a: 14%)
